// provenance: ChEMBL document CHEMBL2010727

Property: Selectivity ratio; scope: individual compounds
Species: Homo sapiens
Experiment: Selectivity ratio of human NR2B receptor over human ERG

Some solved cases for reference:
structure_smiles=Oc1ccc2[nH]c(-c3cccc(F)c3F)nc2c1CN1CCCC1 observation_type="Selectivity ratio" reported="> 100"
structure_smiles=Cc1cccc2[nH]c(-c3ccccc3)nc12 observation_type="Selectivity ratio" reported="> 100"

# context switch: different compound, same Selectivity ratio
Ask: Query (compound): Fc1ccc2[nH]c(-c3ccccc3)nc2c1CN1CCOCC1 ; field requested: Selectivity ratio
Reply: > 100

====

Target: Cytochrome P450 3A4 (Homo sapiens, UniProt P08684)
Sequence (P08684 whole entry): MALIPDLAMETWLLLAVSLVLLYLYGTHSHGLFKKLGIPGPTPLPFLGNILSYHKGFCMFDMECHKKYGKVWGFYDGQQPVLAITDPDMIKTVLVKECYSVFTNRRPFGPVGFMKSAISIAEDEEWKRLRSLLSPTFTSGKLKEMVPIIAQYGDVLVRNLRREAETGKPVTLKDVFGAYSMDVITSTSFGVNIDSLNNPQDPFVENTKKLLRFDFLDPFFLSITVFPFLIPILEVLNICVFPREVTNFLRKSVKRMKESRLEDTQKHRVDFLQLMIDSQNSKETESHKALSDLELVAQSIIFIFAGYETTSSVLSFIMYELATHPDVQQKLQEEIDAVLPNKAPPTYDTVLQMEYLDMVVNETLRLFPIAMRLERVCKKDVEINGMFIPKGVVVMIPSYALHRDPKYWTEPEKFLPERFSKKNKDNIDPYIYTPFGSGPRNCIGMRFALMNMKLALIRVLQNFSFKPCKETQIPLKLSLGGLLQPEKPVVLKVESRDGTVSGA
pIC50: −log10 of the molar value.
observation type: pIC50

structure_smiles=Oc1ccc2[nH]c(-c3ccccc3)nc2c1CN1CCCCC1 observation_type=pIC50 reported="< 4.52"

Ask: Query (compound): c1ccc(-c2nc3cccc(CN4CCCCC4)c3[nH]2)cc1 ; field requested: pIC50
Reply: < 4.30

====

Biological target: Cytochrome P450 2C9 (Homo sapiens, UniProt P11712)
Sequence (P11712 whole entry): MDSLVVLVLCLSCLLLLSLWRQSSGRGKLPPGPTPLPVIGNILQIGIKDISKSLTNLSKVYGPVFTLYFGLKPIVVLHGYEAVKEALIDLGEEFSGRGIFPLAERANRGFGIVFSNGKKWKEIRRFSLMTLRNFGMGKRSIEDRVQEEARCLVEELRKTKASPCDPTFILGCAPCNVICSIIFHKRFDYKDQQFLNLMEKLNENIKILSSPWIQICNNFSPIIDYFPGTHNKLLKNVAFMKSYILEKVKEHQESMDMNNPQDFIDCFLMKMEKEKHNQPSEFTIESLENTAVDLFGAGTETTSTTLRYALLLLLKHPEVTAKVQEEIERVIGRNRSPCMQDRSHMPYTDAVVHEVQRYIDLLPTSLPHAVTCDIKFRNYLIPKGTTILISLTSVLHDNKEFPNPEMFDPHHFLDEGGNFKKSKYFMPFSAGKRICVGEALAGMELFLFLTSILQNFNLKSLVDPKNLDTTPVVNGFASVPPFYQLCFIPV
pIC50: −log10 of the molar value.
observation type: pIC50

Ask: Find the measured pIC50: item c1ccc(-c2nc3cccc(CN4CCCCC4)c3[nH]2)cc1 , target or system Cytochrome P450 2C9 (Homo sapiens, UniProt P11712).
Reply: < 4.30

====

Target: Glutamate receptor ionotropic, NMDA 2B (Homo sapiens, UniProt Q05586+Q13224)
Sequence (Q13224 whole entry, one chain of several): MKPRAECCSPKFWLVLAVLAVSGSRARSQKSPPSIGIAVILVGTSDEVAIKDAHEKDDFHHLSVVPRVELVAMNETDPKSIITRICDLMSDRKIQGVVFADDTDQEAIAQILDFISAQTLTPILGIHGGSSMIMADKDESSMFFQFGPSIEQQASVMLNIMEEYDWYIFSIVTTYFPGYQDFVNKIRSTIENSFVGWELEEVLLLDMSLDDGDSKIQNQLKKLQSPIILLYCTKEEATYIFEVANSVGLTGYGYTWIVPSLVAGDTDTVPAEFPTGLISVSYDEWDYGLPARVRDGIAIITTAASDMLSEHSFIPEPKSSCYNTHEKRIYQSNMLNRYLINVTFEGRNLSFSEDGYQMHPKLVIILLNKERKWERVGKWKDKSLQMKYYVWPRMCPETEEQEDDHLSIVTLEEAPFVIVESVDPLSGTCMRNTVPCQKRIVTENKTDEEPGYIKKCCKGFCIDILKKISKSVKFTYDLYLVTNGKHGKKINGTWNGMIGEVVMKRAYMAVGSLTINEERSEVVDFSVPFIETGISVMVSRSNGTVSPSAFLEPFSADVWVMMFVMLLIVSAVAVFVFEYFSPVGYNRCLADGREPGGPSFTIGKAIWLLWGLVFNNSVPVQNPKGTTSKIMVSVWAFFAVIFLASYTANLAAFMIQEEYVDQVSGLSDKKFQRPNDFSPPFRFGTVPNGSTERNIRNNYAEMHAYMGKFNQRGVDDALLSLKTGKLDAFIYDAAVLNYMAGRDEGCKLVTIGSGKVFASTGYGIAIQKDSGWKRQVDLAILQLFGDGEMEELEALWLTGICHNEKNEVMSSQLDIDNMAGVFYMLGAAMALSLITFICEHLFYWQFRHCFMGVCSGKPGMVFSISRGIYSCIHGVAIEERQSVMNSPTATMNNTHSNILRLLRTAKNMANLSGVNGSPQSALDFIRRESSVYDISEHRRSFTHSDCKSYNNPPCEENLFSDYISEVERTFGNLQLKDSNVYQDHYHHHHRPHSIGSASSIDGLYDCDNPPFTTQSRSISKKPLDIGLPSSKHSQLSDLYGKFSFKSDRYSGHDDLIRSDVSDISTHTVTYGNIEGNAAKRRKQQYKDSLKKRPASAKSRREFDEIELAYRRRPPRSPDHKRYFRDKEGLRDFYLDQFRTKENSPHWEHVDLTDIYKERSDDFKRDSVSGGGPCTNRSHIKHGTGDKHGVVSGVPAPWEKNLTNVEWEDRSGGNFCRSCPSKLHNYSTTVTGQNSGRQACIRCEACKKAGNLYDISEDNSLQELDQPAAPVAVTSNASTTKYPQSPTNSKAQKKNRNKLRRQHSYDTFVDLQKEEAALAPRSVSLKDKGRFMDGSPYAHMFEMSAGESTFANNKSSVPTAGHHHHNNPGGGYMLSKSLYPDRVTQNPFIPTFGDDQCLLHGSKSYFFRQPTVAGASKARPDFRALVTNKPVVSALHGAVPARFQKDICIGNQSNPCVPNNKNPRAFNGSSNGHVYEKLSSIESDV
Test: Displacement of [3H]-Ro256981 from human NR2B receptor
pIC50: −log10 of the molar value.
observation type: pIC50

Some solved cases for reference:
compound="CCC1CCCCN1Cc1c(F)ccc2nc(-c3ccccc3)[nH]c12 (stereo unspecified)" reported=6.00
compound=CC(C)NCc1c(F)ccc2nc(-c3ccccc3)[nH]c12 reported=6.10

A: Oc1ccc2nc(-c3cccc(F)c3F)[nH]c2c1CNCc1ccco1
B: Oc1ccc2[nH]c(-c3ccccc3)nc2c1CN1CCC(c2ccccc2)CC1
C: Oc1ccc2[nH]c(-c3ccccc3)nc2c1CN1CCCCCC1
D: CN1CCN(Cc2c(O)ccc3nc(-c4ccccc4)[nH]c23)CC1
Ask: Sort the compounds on pIC50; start with the lowest figure. // format: requested-order list of labels
Reply: A, D, B, C

====

Biological target: Glutamate receptor ionotropic, NMDA 2B (Homo sapiens, UniProt Q05586+Q13224)
Assay: Displacement of [3H]-Ro256981 from human NR2B receptor
observation type: IC50 (nM)

structure_smiles=Oc1ccc2nc(-c3ccccc3)[nH]c2c1CN1CCCC1 assay_target="Glutamate receptor ionotropic, NMDA 2B (Homo sapiens, UniProt Q05586+Q13224)" result_unit=nM reported=7.94
structure_smiles=Oc1ccc2nc(-c3ccccc3)[nH]c2c1CNC1CCCC1 assay_target="Glutamate receptor ionotropic, NMDA 2B (Homo sapiens, UniProt Q05586+Q13224)" result_unit=nM reported=31.6

a: Fc1ccc2[nH]c(-c3ccccc3)nc2c1CN1CCCCCC1
b: Cc1ccc(-c2nc3c(CNC4CC4)c(O)ccc3[nH]2)cc1
c: Fc1ccc2nc(-c3ccccc3)[nH]c2c1CN1CCOCC1
d: Fc1ccc2nc(-c3ccccc3)[nH]c2c1CN1CCCCC1
e: Oc1ccc2nc(-c3cccc(F)c3F)[nH]c2c1CN1CCCC1
Ask: Falling order of IC50, please. // format: requested-order list of labels
Reply: c, a, d, b, e
(c: 2510 nM, a: 200 nM, d: 79.4 nM, b: 39.8 nM, e: 12.6 nM)

====

Assay: Ratio of drug level in brain to blood in rat at 3 mg/kg, sc
Type: ADME, organism-based
Parameters: dose 3 mg/kg, route subcutaneous
observation type: Kp
Could you respond with only the numeric value?

Ask: Query (molecule): Oc1ccc2[nH]c(-c3ccccc3)nc2c1CN1CCCCC1 ; field requested: Kp
Reply: 2.7

====

Species on record: Homo sapiens
Experiment: Selectivity ratio of human NR2B receptor over human ERG
Property: Selectivity ratio; scope: individual molecules

molecule=CN1CCN(Cc2c(O)ccc3[nH]c(-c4ccccc4)nc23)CC1 reported="> 100"

Ask: Query (molecule): CCC1CCCCN1Cc1c(F)ccc2[nH]c(-c3ccccc3)nc12 (centres undefined) ; field requested: Selectivity ratio
Reply: > 100

Ask: Again, but for Oc1ccc2[nH]c(-c3ccccc3)nc2c1CN1CCCC1
Reply: > 100

====

Biological target: Cytochrome P450 2D6 (Homo sapiens)
Sequence (P10635 whole entry): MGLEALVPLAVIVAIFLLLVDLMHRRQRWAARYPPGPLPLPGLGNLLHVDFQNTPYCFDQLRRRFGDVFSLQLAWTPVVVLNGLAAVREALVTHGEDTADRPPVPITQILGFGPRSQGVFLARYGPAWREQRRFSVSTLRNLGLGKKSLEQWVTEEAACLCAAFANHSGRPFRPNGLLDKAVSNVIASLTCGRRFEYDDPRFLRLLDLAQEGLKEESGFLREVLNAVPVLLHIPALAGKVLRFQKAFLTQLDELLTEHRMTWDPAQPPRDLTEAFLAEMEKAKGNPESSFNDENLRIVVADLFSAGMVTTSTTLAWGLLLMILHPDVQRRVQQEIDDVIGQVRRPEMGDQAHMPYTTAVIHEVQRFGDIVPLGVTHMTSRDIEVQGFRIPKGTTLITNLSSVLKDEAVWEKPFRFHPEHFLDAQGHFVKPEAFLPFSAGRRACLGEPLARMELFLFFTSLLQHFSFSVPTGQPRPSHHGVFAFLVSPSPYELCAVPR
Assay: Inhibition of CYP2D6
Assay type: ADME
observation type: IC50 (µM)

structure_smiles=Fc1ccc2nc(-c3ccccc3)[nH]c2c1CN1CCCC1 assay_target="Cytochrome P450 2D6 (Homo sapiens)" observation_type=IC50 reported=5
structure_smiles=c1ccc(-c2nc3cccc(CN4CCCCC4)c3[nH]2)cc1 assay_target="Cytochrome P450 2D6 (Homo sapiens)" observation_type=IC50 reported=5

====

Species: Homo sapiens
Test: Selectivity ratio of human NR2B receptor over human ERG
observation type: Selectivity ratio

structure_smiles=Fc1ccc2[nH]c(-c3ccccc3)nc2c1CN1CCCCC1 observation_type="Selectivity ratio" reported="> 100"

Ask: Query (compound): O=C(c1cccc2[nH]c(-c3ccccc3)nc12)N1CCCCC1 ; field requested: Selectivity ratio
Reply: > 100

Ask: Again, but for Oc1ccc2[nH]c(-c3cccc(F)c3F)nc2c1CNCc1ccco1
Reply: > 100
